Molecular target: HLA-A*02:01 (Homo sapiens, UniProt P04439, D140Y/D185E/D98H/E176V/E277Q/G131W/G231S/I119V/I121R/I166T/I218V/L300P/L318F/N151K/N90K/P208A/P217A/Q86G/Q94H/R138H/R169H/T345S)
Test: MHC binding assay (UV-ligand exchange, beta2m ELISA)
Conditions: binding to HLA-A*02:01 ranged by peptide exchange yield (UV-ligand exchange, β2m ELISA)
Metric Name: Peptide exchange

>>> observed_result("184 (YLMDINGKMWL; listed as Homo sapiens) [compound 184]")
"“+++” (≥50 = +++)"
>>> observed_result("463 (SLVESHLSDQLTL; listed as Homo sapiens) [compound 463]")
"“+++” (≥50 = +++)"
>>> observed_result("262 (LLWGDLIWL; listed as Homo sapiens) [compound 262]")
"“+++” (≥50 = +++)"
>>> observed_result("25 (FLPDEPYIKV; listed as Homo sapiens) [compound 25]")
"“+++” (≥50 = +++)"
